# Target or system: T1, human CCR8 (human, UniProt P51685 1-355)
# T1 construct: the cells are named under assay; also called hCCR8
# Experiment summary: flow cytometry, HUT78 cells (native CCR8)
Measured quantity: % of labelled cells (%)

INSERT INTO assay_data (binder, observed_measurement) VALUES
  ('3-82 (antibody, human IgG1, kappa, V domains shown, humanized, human IgG1 kappa) VH: QVQLVESGGGVVQPGRSLRLSCAASGFTFSNYRMHWVRQAPGKGLEWIAVIKVKSDNYGANYADSVKGRFTISRDNSKNTLYLQMNSLRAEDTAVYYCSSPTYPGSSGFAYWGQGTLVTVSS VL: DIQMTQSPSSLSASVGDRVTITCRASQDISNYLNWYQQKPDGTVKLLIYYTSRLHTGVPSRFSGSGSGTDYTLTISNLQQEDIATYFCQQGNKFPPTFGGGTKVEINR', 93);
